- target-or-test-system: (H⁺+K⁺)-ATPase (Canis lupus familiaris)
- Construct: The microsomes retained at the 15%-30% sucrose interface, after centrifugation at 250,000xg for sixty minutes, were used as the source of (H⁺+K⁺)-ATPase
- Sequence (P50996 whole entry): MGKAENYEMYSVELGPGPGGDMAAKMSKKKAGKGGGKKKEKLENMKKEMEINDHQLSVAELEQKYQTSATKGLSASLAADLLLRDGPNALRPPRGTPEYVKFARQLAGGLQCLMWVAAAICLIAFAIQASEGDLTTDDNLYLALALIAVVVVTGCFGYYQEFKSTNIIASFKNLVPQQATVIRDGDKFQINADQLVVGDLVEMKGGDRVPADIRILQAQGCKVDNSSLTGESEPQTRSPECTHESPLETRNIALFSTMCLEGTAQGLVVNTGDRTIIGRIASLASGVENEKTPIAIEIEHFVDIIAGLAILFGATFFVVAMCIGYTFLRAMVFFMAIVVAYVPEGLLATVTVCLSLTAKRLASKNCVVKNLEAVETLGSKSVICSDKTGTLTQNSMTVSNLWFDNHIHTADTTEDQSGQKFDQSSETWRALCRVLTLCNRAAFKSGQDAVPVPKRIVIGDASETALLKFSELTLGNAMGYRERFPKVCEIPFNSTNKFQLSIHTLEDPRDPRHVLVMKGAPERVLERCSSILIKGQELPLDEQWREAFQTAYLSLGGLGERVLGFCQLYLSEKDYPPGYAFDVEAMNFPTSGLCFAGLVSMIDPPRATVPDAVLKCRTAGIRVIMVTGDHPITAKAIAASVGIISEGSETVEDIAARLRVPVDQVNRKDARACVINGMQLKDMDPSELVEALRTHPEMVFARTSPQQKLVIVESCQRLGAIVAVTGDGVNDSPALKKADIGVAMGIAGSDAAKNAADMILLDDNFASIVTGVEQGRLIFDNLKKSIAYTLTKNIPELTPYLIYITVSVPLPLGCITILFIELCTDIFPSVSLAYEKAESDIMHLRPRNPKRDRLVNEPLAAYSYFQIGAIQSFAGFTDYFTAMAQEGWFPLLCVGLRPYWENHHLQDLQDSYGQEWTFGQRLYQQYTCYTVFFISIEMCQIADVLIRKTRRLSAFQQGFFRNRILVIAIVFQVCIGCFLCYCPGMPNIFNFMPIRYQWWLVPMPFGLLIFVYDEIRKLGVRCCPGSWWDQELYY
- Sequence (P33704 whole entry partner): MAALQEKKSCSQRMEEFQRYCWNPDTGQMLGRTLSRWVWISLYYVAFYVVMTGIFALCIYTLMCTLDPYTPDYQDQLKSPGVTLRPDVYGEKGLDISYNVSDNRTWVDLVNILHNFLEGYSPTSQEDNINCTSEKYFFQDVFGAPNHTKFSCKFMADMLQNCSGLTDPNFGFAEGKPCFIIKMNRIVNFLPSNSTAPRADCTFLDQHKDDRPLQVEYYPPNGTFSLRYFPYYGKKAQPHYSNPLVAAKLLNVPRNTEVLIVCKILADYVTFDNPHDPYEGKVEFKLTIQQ
- assay-comment: Inhibition of (H⁺+K⁺)-ATPase from canine gastric mucosa (release of inorganic phosphate)
- assay-context: microsomes from canine gastric mucosa, pH 6.0, preincubated 30 min at 37°; read-out: (H⁺+K⁺)-ATPase IC₅₀
readout: pIC50
Give bare numbers, as −log10 of the molar value.

Completed entries (count: 5):
Cc1ccc(CSc2nc3ccccc3[nH]2)c(N)c1C    5.36
COc1ccc2[nH]c(SCc3cc(C)ccc3N)nc2c1    6.07
COc1ccc2[nH]c(SCc3cccc(C)c3N)nc2c1    5.38
Cc1cc(N)c(C[S+]([O-])c2nc3ccccc3[nH]2)c(C)c1C (stereo not drawn) [Example 30, hemihydrate]    5.82
COc1ccc2[nH]c([S+]([O-])Cc3c(N)cc(C)c(OC)c3C)nc2c1 (stereo not drawn)    4.80

## Task Missing value: pIC50, (H⁺+K⁺)-ATPase (Canis lupus familiaris), entry CCOc1ccc2[nH]c(SCc3cc(C)ccc3N)nc2c1 . Fill in?
## Result 6.09
